Target: T1, Human syndecan-1 (CD138) on the cell surface (human, UniProt P18827 23-310)
T1 construct: Endogenous on H929, KMS-11 and RT112/84 cells or transfected into Expi293 cells; also called human CD138; hCD138
T1 sequence: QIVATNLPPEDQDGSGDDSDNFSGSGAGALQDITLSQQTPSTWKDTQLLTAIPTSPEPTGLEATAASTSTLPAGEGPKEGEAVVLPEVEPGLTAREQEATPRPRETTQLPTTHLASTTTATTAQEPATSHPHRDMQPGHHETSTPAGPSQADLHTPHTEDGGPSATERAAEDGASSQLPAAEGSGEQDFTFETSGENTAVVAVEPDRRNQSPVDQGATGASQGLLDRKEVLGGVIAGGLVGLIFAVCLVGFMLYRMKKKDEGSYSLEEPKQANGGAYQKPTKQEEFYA
Assay: summary table; repeats the EC50 (nM) of Table 20, unit not given
Doc: threshold 1 (exclusive). Items with FACS binding (KMS11) beneath it return Fulfilled; others return Not fulfilled.

binder="F6 f1ks-rep (antibody, V domains shown, Humanized F12P16F6 expressed as whole antibody with human constant regions (kappa light chain)) VH: QVQLQQSGAEVVKPGASVKLSCKASGYTFTSYYLYWVKKAPGQGLDWIGEIYPRSGGTNINEKFLSRVTLTADTSTSTAYMDLSSLTSEDTAVYYCTRSLLYWGQGTTLTVSS VL: DVVMTQTPLSLSVTPGQPASISCKSSQSLLASDGKTYLNWLLQRPGQSPKRLIYLVSKLDSGVPNRFSGSGSGTDFTLQISRVEAEDVGLYYCWQGAHFPFTFGSGTKLEIKR" class_assignment=Fulfilled
binder="F6 f1ka-rep (antibody, V domains shown, Humanized F12P16F6 expressed as whole antibody with human constant regions (kappa light chain)) VH: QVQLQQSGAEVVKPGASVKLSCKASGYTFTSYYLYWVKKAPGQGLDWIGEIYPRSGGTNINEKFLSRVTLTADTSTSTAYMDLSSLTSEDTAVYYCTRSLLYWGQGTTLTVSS VL: DVVMTQTPLSLSVTPGQPASISCKSSQSLLASDGKTYLNWLLQRPGQSPKRLIYLVSKLDSGVPNRFSGSGSGTDFTLQISRVEAEDVGLYYCMQGAHFPFTFGGGTKVEIKR" class_assignment=Fulfilled
binder="F6 aks-rep (antibody, V domains shown, Humanized F12P16F6 expressed as whole antibody with human constant regions (kappa light chain)) VH: QVQLVQSGAEVVKPGASVKLSCKASGYTFTSYYLYWVKKAPGQGLDWIGEIYPRSGGTNYAEKFQGRVTLTADTSTSTAYLELSSLTSEDTAVYYCTRSLLYWGQGTTLTVSS VL: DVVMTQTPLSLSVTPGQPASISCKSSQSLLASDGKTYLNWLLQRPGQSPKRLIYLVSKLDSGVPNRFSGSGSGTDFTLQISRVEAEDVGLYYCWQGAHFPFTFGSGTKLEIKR" class_assignment="Not fulfilled"
binder="F6 akf-rep (antibody, V domains shown, Humanized F12P16F6 expressed as whole antibody with human constant regions (kappa light chain)) VH: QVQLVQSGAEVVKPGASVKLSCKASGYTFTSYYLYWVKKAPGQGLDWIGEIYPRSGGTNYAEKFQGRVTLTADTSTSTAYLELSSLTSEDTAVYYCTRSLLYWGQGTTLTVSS VL: DVVMTQSPLSLSVTLGQPASISCKSSQSLLASDGKTYLNWLQQRPGQSPRRLIYLVSKLDSGVPNRFSGSGSGTDFTLQISRVEAEDVGLYYCWQGAHFPFTFGSGTKLEIKR" class_assignment="Not fulfilled"
binder="F6 cka-rep (antibody, V domains shown, Humanized F12P16F6 expressed as whole antibody with human constant regions (kappa light chain)) VH: QVQLVQSGAEVVKPGASVKLSCKASGYTFTSYYLYWVKKAPGQGLDWIGEIYPRSGGTNINEKFLSRVTLTADTSTSTAYLELSSLTSEDTAVYYCTRSLLYWGQGTTLTVSS VL: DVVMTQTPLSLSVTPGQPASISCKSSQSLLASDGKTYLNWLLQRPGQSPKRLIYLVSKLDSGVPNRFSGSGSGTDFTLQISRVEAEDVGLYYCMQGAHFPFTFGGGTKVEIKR" class_assignment="Not fulfilled"
binder="F6 cks-rep (hF6) (antibody, human IgG1, kappa, V domains shown, Humanized IgG1/kappa antibody; also called hF6 (no Fynomer)) VH: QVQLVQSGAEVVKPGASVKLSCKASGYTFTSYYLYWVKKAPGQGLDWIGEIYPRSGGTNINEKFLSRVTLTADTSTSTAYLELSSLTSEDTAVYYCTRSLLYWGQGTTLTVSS VL: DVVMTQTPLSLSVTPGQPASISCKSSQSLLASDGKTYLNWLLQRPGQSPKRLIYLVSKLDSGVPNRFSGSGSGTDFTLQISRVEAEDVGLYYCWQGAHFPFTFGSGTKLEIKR" class_assignment="Not fulfilled"
